Where these numbers come from: PubChem BioAssay

assay: inhibitors of the yeast RAM network, pilot screen, dse1pr::URA3 reporter, 5-FOA selection (AID 869);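 also: 0% = DMSO wells with no growth and 100% = 10 µM 1-NA-PP1 with full growth; RAM network block rescues cells from 5-FOA so hits raise OD615 growth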; conditions: S. cerevisiae dse1pr::URA3 5-FOA growth, OD615, 2 d; at 10 µM; hits give high values; strain carries analog-sensitive mutant Cbk1 kinase
Calls of active or inactive are those of the source.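 The calls were made as follows: active = inhibition over a set limit, the all-compound mean plus 3 SD, in both replicate runs; inconclusive = over that limit in just one replicate run; inactive = at or under that limit in both runs.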
measured parameter: inhibition

Which inhibition is reported for this molecule? COc1cccc(NC=C2C(=O)OC(C)(C)OC2=O)c1
0.94% (inactive)

Which inhibition is reported for this molecule? CSc1ccccc1NC(=O)c1cnc2scc(C)n2c1=O
0.665% (inactive)

* * *

Some molecules, each annotated with its measured inhibition.
assay: inhibitors of the yeast RAM network, pilot screen, dse1pr::URA3 reporter, 5-FOA selection (AID 869);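 also: 0% = DMSO wells with no growth and 100% = 10 µM 1-NA-PP1 with full growth; RAM network block rescues cells from 5-FOA so hits raise OD615 growth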; details: S. cerevisiae dse1pr::URA3 5-FOA growth, OD615, 2 d; at 10 µM; hits give high values; strain carries analog-sensitive mutant Cbk1 kinase
Calls of active or inactive are those of the source.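 How the source made its calls: active means inhibition over a set limit, the all-compound mean plus 3 SD, in both replicate runs; inconclusive means over that limit in just one replicate run; inactive means at or under that limit in both runs.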

Worked cases, inhibition given:
Cc1ccc(C(=O)N2CCN(C3CCCCC3)CC2)s1 :: 1.48% (inactive)
O=C(CSc1nc2c(cnn2-c2ccc(F)cc2)c(=O)[nH]1)N1CCCc2ccccc21 :: 1.2% (inactive)
Cc1cc(N2C(=O)C3CC=CCC3C2=O)cc(C)c1Br (stereo unspecified) :: 2.22% (inactive)
Cn1c(=O)c2c(SCc3cccnc3)nc(C3CC3)nc2n(C)c1=O :: -0.18% (inactive)
CSC1=C(C#N)C(c2ccc(C(C)C)cc2)CC(=O)N1 (stereo unspecified) :: 2% (inactive)

Alright, here's another molecule for you.
Which inhibition is reported for this molecule? COC(=O)C1=C(C)Nc2nc(-c3ccccc3)nn2C1c1ccc(C)o1 (stereo unspecified)
2.19% (inactive)
